- System: female NMRI-albino mice
- methodDescription: Acute toxicity, intravenous, mice
- Type: in vivo
- conditionContext: 200 mg/kg i.v., within 24 hours
What Frequency of death was measured for each of the following?

Just so you know, measured Frequency of death for CN(Cc1ccccc1)[C@H]1CO[C@H]2[C@@H]1OC[C@@H]2O[N+](=O)[O-] came out at 6/6

Just so you know, measured Frequency of death for N#Cc1ccccc1OCC(O)CN[C@H]1CO[C@H]2[C@@H]1OC[C@@H]2O[N+](=O)[O-] (stereo partly shown) came out at 4/6

Just so you know, measured Frequency of death for O=[N+]([O-])O[C@H]1CO[C@H]2[C@@H]1OC[C@@H]2N1CCOCC1 came out at 0/3

Just so you know, measured Frequency of death for O=[N+]([O-])O[C@H]1CO[C@H]2[C@@H]1OC[C@@H]2N1CCCC1 came out at 1/3

// data source = patent US4363805A
